Test system: galium (catchweed bedstraw, Galium aparine)
Assay: Test C pre-/postemergence: galium
Type: in vivo
Details: Postemergence, 31 g ai/ha; scale 0 to 100 (0 no effect, 100 complete control)
value_type: Plant response rating, Galium
One number for each entry.

>  <compound>
CCc1nn(-c2ccc(C(F)(F)F)cc2)nc1Cc1ccnc(C(F)(F)F)c1 [Compound 155]

>  <target_of_assay>
galium (catchweed bedstraw, Galium aparine)

>  <measured_value>
70

$$$$

Please report Plant response rating, Galium for every entry that follows.
1. Cc1nn(-c2ccc(F)c(C(F)(F)F)c2)nc1Cc1ccnc(C(F)(F)F)c1 [Compound 156]
2. CCc1nn(-c2ccc(F)cc2)nc1Cc1ccnc(C(F)(F)F)c1 [Compound 154]
3. Cc1nn(-c2ccc(C(F)(F)F)cn2)nc1Oc1ccnc(C(F)(F)F)c1 [Compound 23]
4. CCOc1nn(-c2ccc(Cl)cc2)nc1Cc1ccnc(C(F)(F)F)c1 [Compound 188]
5. Cc1nn(-c2ccc(C(F)(F)F)c(F)c2)nc1Oc1ccnc(C(F)(F)F)c1 [Compound 148]
6. COc1nn(-c2ccc(C(F)(F)F)cc2)nc1Cc1ccnc(C(F)F)c1 [Compound 138]

(A)
1. 80
2. 45
3. 85
4. 60
5. 80
6. 85

Quick request: Plant response rating, Galium for each listed item, please.
1. COc1nn(-c2cccc(F)c2)nc1Cc1ccnc(C(F)(F)F)c1 [Compound 139]
2. CCCc1nn(-c2ccc(F)cc2F)nc1Oc1ccnc(C(F)(F)F)c1 [Compound 179]

(A)
1. 60
2. 90

---

System: bluegrass (annual bluegrass, Poa annua)
Test: Test D pre-/postemergence: bluegrass
Assay type: in vivo
Settings: Postemergence, 125 g ai/ha; scale 0 to 100, 0 no effect, 100 complete control
value_type: Plant response rating: Bluegrass
Give bare numbers.

Example cases with answers are listed next.
>  <structure>
CCc1nn(-c2ccc(C(F)(F)F)cc2)nc1Cc1ccnc(C(F)(F)F)c1

>  <measured_value>
90

$$$$
>  <structure>
Cc1nn(-c2ccc(C(F)(F)F)cc2)nc1Oc1ccnc(C(F)(F)F)c1

>  <measured_value>
70

$$$$
>  <structure>
Cc1nn(-c2ccc(C(F)(F)F)cn2)nc1Cc1cccc(C(F)(F)F)c1

>  <measured_value>
15

$$$$

With those in mind, consider the next compound.
(Q) What value of Plant response rating: Bluegrass has been reported for the following compound? "FC(F)(F)COc1nn(-c2ccc(C(F)(F)F)cc2)nc1Cc1ccnc(C(F)(F)F)c1"
(A) 70

---

Tested on: foxtail, giant (giant foxtail, Setaria faberii)
Assay: Test A pre-/postemergence: foxtail, giant
Assay type: in vivo
Conditions: Postemergence, 1000 g ai/ha; visual rating on 0 to 100 scale (0 no effect, 100 complete control), approximately ten days
For each record, write down the corresponding Foxtail, Giant plant response rating.
Numbers only.

Solved entries (count: 5):
>  <structure>
Cc1nn(-c2ccc(F)cc2)nc1Cn1nc(C(F)(F)F)cc1C

>  <Foxtail, Giant plant response rating>
20

$$$$
>  <structure>
Cc1nn(-c2ccc(C(F)(F)F)cc2)nc1Cn1cnc(C(F)(F)F)n1

>  <Foxtail, Giant plant response rating>
90

$$$$
>  <structure>
Cc1nn(-c2ccc(F)cc2)nc1Cn1cnc(C(F)(F)F)n1

>  <Foxtail, Giant plant response rating>
70

$$$$
>  <structure>
CCc1nn(-c2ccc(C(F)(F)F)cc2)nc1Cn1cnc(C(F)(F)F)c1

>  <Foxtail, Giant plant response rating>
70

$$$$
>  <structure>
Cc1nn(-c2ccc(C(F)(F)F)cc2)nc1Cn1cnc(C(F)(F)F)c1

>  <Foxtail, Giant plant response rating>
60

$$$$

Lab note: next compound to report on.
(Q) Foxtail, Giant plant response rating lookup needed for "CCc1nn(-c2ccc(C(F)(F)F)cc2)nc1Cn1nc(C(F)(F)F)cc1C" , thanks.
(A) 50
